biological target: soluble human BACE (Homo sapiens, UniProt P56817); construct: cells secreting human recombinant soluble BACE; made in house; conditioned medium; experiment: BACE activity Cell Free Assay (ELISA of cleaved synthetic APP substrate); format: biochemical
Sequence (P56817 46-457 limits assumed): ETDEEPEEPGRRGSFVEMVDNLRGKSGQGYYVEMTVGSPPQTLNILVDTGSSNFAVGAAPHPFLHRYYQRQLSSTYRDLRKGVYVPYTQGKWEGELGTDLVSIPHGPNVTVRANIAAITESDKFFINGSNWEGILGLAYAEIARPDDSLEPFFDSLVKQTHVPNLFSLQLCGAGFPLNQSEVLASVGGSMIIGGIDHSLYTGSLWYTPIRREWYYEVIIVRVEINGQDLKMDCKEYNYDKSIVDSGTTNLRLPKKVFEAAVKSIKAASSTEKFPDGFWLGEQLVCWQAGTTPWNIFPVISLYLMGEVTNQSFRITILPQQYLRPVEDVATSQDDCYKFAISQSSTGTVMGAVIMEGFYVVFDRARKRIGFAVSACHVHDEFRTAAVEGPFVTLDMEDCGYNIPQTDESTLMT
pIC50: −log10 of the molar value. Counter-ions that a name gives are not always drawn.

# molecule, pIC50
records = [
    ("CC1CC2(C=CC(=O)N2c2cccc(F)c2)CCN1Cc1nc(-c2ccccc2Cl)cs1 (racemic)", "3.52 to 4.00"),
    ("Cc1ccc(F)cc1-c1cc(CN2CC[C@]3(C=CC(=O)N3c3cccc(F)c3)C[C@@H]2C)ccc1O", "6.00 to 9.00"),
    ("CCCn1nccc1CN1CCC2(CCC(=O)N2c2cccc(F)c2)CC1C (racemic)", "3.52 to 4.00"),
    ("CC1CC2(CCC(=O)N2c2cccc(F)c2)CCN1Cc1c[nH]c2ccc(Cl)cc12 (racemic)", "4.00 to 5.00"),
    ("C[C@H]1C[C@@]2(C=CC(=O)N2c2cnccn2)CCN1Cc1ccc(O)c(Cl)c1 [#140, ammonium salt]", "4.00 to 5.00"),
    ("CC1CC2(C=CC(=O)N2c2cccc(F)c2)CCN1Cc1cccc(Oc2ccc(Cl)cc2)c1 (racemic)", "4.00 to 5.00"),
    ("Cc1ccccc1-c1cc(CN2CC[C@]3(CCC(=O)N3c3cccc(F)c3)C[C@@H]2C)ccc1O", "6.00 to 9.00"),
    ("C[C@H]1C[C@@]2(C=CC(=O)N2c2cccc(F)c2)CCN1Cc1ccc(O)c(-c2ccccc2Cl)c1", "6.00 to 9.00"),
    ("CC(C)n1ncc2ccc(CN3CC[C@]4(C=CC(=O)N4c4cnccn4)C[C@@H]3C)cc21", "4.00 to 5.00"),
    ("CC1CC2(C=CC(=O)N2c2cccc(F)c2)CCN1Cc1cccc(COc2cc(F)cc(F)c2)c1 (racemic)", "4.00 to 5.00"),
    ("Cc1ccncc1-c1cccc(CN2CCC3(CCC(=O)N3c3cccc(F)c3)CC2C)c1 (racemic)", "4.00 to 5.00"),
    ("CC1CC2(C=CC(=O)N2c2cccc(F)c2)CCN1Cc1cccc(-c2ccc(C(F)(F)F)cn2)c1 (racemic)", "3.52 to 4.00"),
    ("CC1CC2(C=CC(=O)N2c2cccc(F)c2)CCN1Cc1cccc(Oc2ccccc2)c1 (racemic)", "4.00 to 5.00"),
    ("CCCOc1cccc(CN2CCC3(C=CC(=O)N3c3cccc(F)c3)CC2C)c1 (racemic)", "4.00 to 5.00"),
    ("CC1CC2(C=CC(=O)N2c2cccc(F)c2)CCN1Cc1ccc(F)c(Br)c1 (racemic)", "3.52 to 4.00"),
    ("COc1ccc(F)c(CN2CCC3(CCC(=O)N3c3cccc(F)c3)CC2C)c1 (racemic)", "3.52 to 4.00"),
    ("CC1=C[C@]2(CCN(Cc3ccc(O)c(OC(C)C)c3)[C@@H](C)C2)N(c2cccc(F)c2)C1=O [Example @98, hydrochloride salt]", "6.00 to 9.00"),
    ("CC(C)Oc1cccc(CN2CC[C@@]3(C[C@@H]2C)CC(F)(F)C(=O)N3c2cccc(F)c2)c1 (racemic) [Example 91, formate salt]", "4.00 to 5.00"),
    ("CC1CC2(C=CC(=O)N2c2cccc(F)c2)CCN1Cc1nc(-c2cccc(C#N)c2)cs1 (racemic)", "4.00 to 5.00"),
    ("CC1CC2(C=CC(=O)N2c2cccc(F)c2)CCN1Cc1c[nH]c(-c2ccccc2)n1 (racemic)", "3.52 to 4.00"),
    ("CC(C)C(=O)c1cc(CN2CC[C@]3(C=CC(=O)N3c3cccc(F)c3)C[C@@H]2C)ccc1O", "5.00 to 6.00"),
    ("Cc1nc(N2C(=O)C=C[C@]23CCN(Cc2cccc(OC(C)C)c2)[C@@H](C)C3)cs1", "5.00 to 6.00"),
    ("CC(C)Oc1cccc(CN2CCC3(C=CC(=O)N3c3cccc(F)c3)CC2C)c1 (racemic)", "5.00 to 6.00"),
    ("COc1cccc(CN2CCC3(C=CC(=O)N3c3cccc(F)c3)CC2C)c1 (racemic)", "3.52 to 4.00"),
    ("CC1CC2(C=CC(=O)N2c2cccc(F)c2)CCN1Cc1nc(-c2cccc(Cl)c2)cs1 (racemic)", "4.00 to 5.00"),
    ("CCCn1nccc1CN1CC[C@]2(C=CC(=O)N2c2cnccn2)C[C@@H]1C", "3.52 to 4.00"),
    ("CC(C)Cc1ocnc1CN1CC[C@]2(CCC(=O)N2c2cccc(F)c2)C[C@@H]1C", "4.00 to 5.00"),
    ("CC(C)Oc1cccc(CN2CC[C@]3(C=CC(=O)N3c3cncc(C#N)c3)C[C@@H]2C)c1", "4.00 to 5.00"),
    ("CC1CC2(CCC(=O)N2c2cccc(F)c2)CCN1Cc1nc(-c2ccc(C#N)cc2)cs1 (racemic)", "3.52 to 4.00"),
    ("CC1CC2(CCC(=O)N2c2cccc(F)c2)CCN1Cc1cccc(OC2CCCC2)c1 (racemic)", "3.52 to 4.00"),
    ("Cc1cccnc1N1C(=O)C=C[C@]12CCN(Cc1cccc(OC(C)C)c1)[C@@H](C)C2", "4.00 to 5.00"),
]
